Target: T1, recombinant human CD300LB overexpressed on Jurkat cells (human, UniProt A8K4G0 18-201)
T1 construct: also called huCD300LB; huCD300LB-expressing Jurkat cells
T1 sequence: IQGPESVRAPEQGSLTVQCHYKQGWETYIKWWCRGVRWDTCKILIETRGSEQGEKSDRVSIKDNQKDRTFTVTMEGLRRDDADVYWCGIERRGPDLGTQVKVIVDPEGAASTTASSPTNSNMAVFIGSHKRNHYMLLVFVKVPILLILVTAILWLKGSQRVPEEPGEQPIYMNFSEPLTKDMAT
Test: flow cytometry, stable Jurkat cells, supernatant or 10 ug/mL, isotype subtracted
result-type: gMFI (gMFI)
Lab book: enter the figure in gMFI, no units written.

These recorded examples may help you get a feel for the data.
binder	result-type	experimental-result
anti-CD300LB antibody CD-02 (antibody, V domains shown) VH: QVQLQQPGAELVRPGSSVKLSCQASGYTFTNYWMHWVRQRPIQGLEWIGNIDPSDSETHYNQKFKDRATLTVDKSSSTAYMQLSSLTSEDSAVYYCARSGVYDDEGGDYWGQGTTLTVSS VL: ENVLTQSPAIMSASPGEKVTMTCSASSSVSYIHWYQQKSSTSPKLWIYDTSKLASGVPGRFSGSGSGNSYSLTISSMETEDVATYYCFQGSGYPLTFGAGTKLELK	gMFI	1130
anti-CD300LB antibody CD-13 (antibody, V domains shown) VH: QIQLVQSGPELKKPGETVKISCKASGYTFTDYSMHWVKQAPGKGFKWMAWINTETGAPTHADDFRGRFAFSLETSASTAFLQISNLKTEDTATYFCVTFGKSYGMNYWGQGTSVTVSS VL: DIVLTQSPASLSVSLGQRATISCRASKSVGSSGSSYLHWYQQKPGQPPKLLIYLASNLESGVPARFSGSGSGTEFTLNIHPVEEEDAATYYCQHNAEVPPTFGGGTKLEIK	gMFI	324
anti-CD300LB antibody CD-11 (antibody, V domains shown) VH: QIQLVQSGPEVKKPGETVKISCKASGYTLTDYSMHWVMQTPGTGLKWMAWMNTETGEPTYADDFKGRFAFSLETSAGTAYLQIDNLKNEDTATYFCATYGKSYGMKYWGQGTSVTVSS VL: DIVLTQSPPSLAVSLGQRATISCRATKSVSPYLHWYQQTPGQPPKLLIYLASNLDSGVPARFSGSGSGTDFTLNIHPVEEEDAATYYCQHNKELPPTFGGGTRLEIK	gMFI	50
anti-CD300LB antibody CD-05 (antibody, V domains shown) VH: QVQLVQSGAEVKKPGASVKVSCKASGYTFSRYYINWVRQAPGQGLEWMGWINPNSGGTNYAQKFQGRVTMTRDTSTSTVYMELSSLRSEDTAVYYCTTDQLRFGKTGPYYGMDVWGQGTTVTVSS VL: DIQMTQSPSSLSASVGDRVTITCRASQNIGTYLNWYQQKPGKAPKLLIYAASSLQSGVPSRFSGSGSGTDFTLTISSLQPEDFATYYCQQSYSDTLTFGGGTKVEIK	gMFI	1810
anti-CD300LB antibody CD-10 (antibody, V domains shown) VH: QVQLQQSGPELVRPGVSVKISCKGSGYTFTDYAMHWVKQSHVRSREWIGVIGTYNGHTNYNQKFKGKATMTVDKSSSTAYLELARLTSEDSAIYYCARSGSYYYSMDYWGQGTSVTVSS VL: QIVLTQSPAIMSASPGEKVTMTCSASSSVNYMHWYQQKSGTSPKRWIYDTSKLSSGVPARFSGSGSGTSYSLTISTMEAEDAATYYCQQWSSNPPMTFGGGTKLEIK	gMFI	18
anti-CD300LB antibody CD-01 (antibody, V domains shown) VH: RVQLQQSGAELVRPGASVTLSCKASGFTFTDFEMHWVKKTPVHGLEWIGAIDPESGNTAYNQKFRGKATLTADKSSSTAYMELRYLTSEDSAVYYCTPLISGADYWGQGTTLTVSS VL: DVVMTQSPLSLPVSLGDQASISCRSSQSLVHSDGNTYLYWYLQKPGQSPKLLIYKVSNRFSGVPDRFSGSGSGTDFTFKISRVGAEDLGVYFCSQSTHVPWTFGGGTKLEII	gMFI	309

Next binder, gMFI to be filled in.
Suppose we examine the binder anti-CD300LB antibody CD-14 (antibody, V domains shown) VH: QIQLVQSGPELKKPGETVKISCKASGYTFTDYSLHWVKQTPEKNLKWMAWINTETGAPTYADDFKGRFAFSLETSSNTAYLLINNLKNEDTATYFCALTMVNYWGQGTTLTVSS VL: DIVMTQSQKFMSTSVGDRVSVTCKASQNVGIRVAWHQQKPGQSPKTLIYSTSYRYSGVPDRFTGSGSGTEFILTISNVQSEDLAEYFCQQYNSYPYTFGGGTKLEIK ; what gMFI value has been reported? 59
